tested on: ncRNAs (SEQ ID NO 28-89); experiment: ncRNA arrays of melanocytes, keratinocytes, normal skin, melanoma cell lines and patient samples; design: species or system human; conditions: melanoma patient 30 sample compared to normal skin
Listed here are substances together with their documented ncRNA array expression, patient 30.
Lab note: write the figure by itself, no unit.

Solved cases below.
SEQ ID NO 41 (CTCGTAACACTGGGAAAACTGCATACAATATTTAGAAGGAACACTAATACAGCAGAATCT; listed as DNA, chemistry not given here; listed as Homo sapiens): 0.7101
SEQ ID NO 29 (TTAAATACATGTTTCTAATATTTTAGTGTTTTGTATTTAGGTTATTTATTCTTTGTATCT; DNA, backbone and methylation of C not given here; listed as Homo sapiens): −2.062
SEQ ID NO 53 (ATATATTTAGATAGTACTATGTTTCGTTTTCTTCCGATTTCAGGGATCCTTTTGTCTTAC; listed as DNA, chemistry not given here; listed as Homo sapiens): −3.05

Return reported ncRNA array expression, patient 30; argument: SEQ ID NO 45 (ATTTAGAGAACATTTAAATCTGTAAGGAAGAAAATAATAACGACTCACAATTACATCATT; listed as DNA, chemistry not given here; listed as Homo sapiens)
0.8792

Return reported ncRNA array expression, patient 30; argument: SEQ ID NO 51 (ATGTATTTTAGGTAATAAGATTTTTATCAATTGTGTCTTTTTCTTTCTTTGCTTTCTATA; listed as DNA, chemistry not given here; listed as Homo sapiens)
−0.4325

###

System: ncRNAs (SEQ ID NO 28-89)
Experiment: ncRNA arrays of melanocytes, keratinocytes, normal skin, melanoma cell lines and patient samples
Set-up: species or system human
Conditions: melanoma patient 9 sample compared to normal skin
Method: An ncRNA array platform that contains over 10,000 putative (>200 nt) ncRNAs including most of the known ncRNAs in mouse and human was conducted to evaluate ncRNAs within melanoma. Lack of coding potential was estimated by an algorithm that scores various characteristics of protein-coding genes, including open reading frame length, synonymous/non-synonymous base substitution rates and similarity to known proteins. […]
resultType: ncRNA array expression, patient 9
Lab note: write the figure by itself, no unit.

SEQ ID NO 46 (CTATTGGAGTGCATATAAATTCTTGATAGCACCAGTTCTCAAATATGAGGTGTTAAAAAC; listed as DNA, chemistry not given here; listed as Homo sapiens): 5.175
SEQ ID NO 35 (GTTTCCATTGAAGAATATTACGCTCGGGGACAAGCCAGGTGCACGACCAAAAATTTAAAA; DNA, backbone and methylation of C not given here; listed as Homo sapiens): −0.1931
SEQ ID NO 83 (TCAGTTTGATGATTGGGCTAGGGAATGAAGCTTTGCCACTTAGGAGATAAACCCCATAAC; listed as DNA, chemistry not given here; listed as Homo sapiens): −1.016
SEQ ID NO 52 (TTTTCTTAGTCTTTTTACTTTTTCCATTATATTCTTTGATATATTTGAGAAAATGGCTTG; listed as DNA, chemistry not given here; listed as Homo sapiens): 0.8678

With those in mind, consider the next substance.
Return reported ncRNA array expression, patient 9; argument: SEQ ID NO 42 (TAGACATAGGTTAGAGGGGGAACAGTGCTTAAAATTCCATGGAACTAAGATTTTTTTTAT; listed as DNA, chemistry not given here; listed as Homo sapiens)
−1.562

###

test system: ncRNAs (SEQ ID NO 28-89); experiment: ncRNA arrays of melanocytes, keratinocytes, normal skin, melanoma cell lines and patient samples; set-up: species or system human; details: melanoma patient 23 sample compared to normal skin
resultType: ncRNA array expression, patient 23
Lab note: write the figure by itself, no unit.

SEQ ID NO 36 (TATTTGTGACTAACTGTATAACAGGTTATTTTAGTTTCTGTTCTGTGGGAAGTGTAAAGC; listed as DNA, chemistry not given here; listed as Homo sapiens): 2.96
SEQ ID NO 44 (AGCCAACTCACGCTTAGGGAGAACTCATACCGCCTAAATATAAAGGCAATTATATATATA; listed as DNA, chemistry not given here; listed as Homo sapiens): −1.95
SEQ ID NO 41 (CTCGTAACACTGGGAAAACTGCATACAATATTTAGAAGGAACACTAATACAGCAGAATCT; listed as DNA, chemistry not given here; listed as Homo sapiens): −1.1449
SEQ ID NO 55 (CCTCTCCCCTTCTTGCAAAAAATATTCTATATTCAAGTTTAGGAGAAAACAGAATACTTG; listed as DNA, chemistry not given here; listed as Homo sapiens): −1.275

Return reported ncRNA array expression, patient 23; argument: SEQ ID NO 89 (GGACACAGAGAGTCATGCACCAGCCCAGTGAGAACCAATTCAGAGCCAAATGCCAAACCC; listed as DNA, chemistry not given here; listed as Homo sapiens)
−0.3405

###

test system: ncRNAs (SEQ ID NO 28-89); experiment: ncRNA arrays of melanocytes, keratinocytes, normal skin, melanoma cell lines and patient samples; design: species or system human; conditions: melanoma patient 28 sample compared to normal skin
resultType: ncRNA array expression, patient 28

SEQ ID NO 30 (ATTCCAAGGCCTATTAAAATTTCTGAGCATTGCCCATTTCTTTTGCTTTATCTGTAGGAC; DNA, backbone and methylation of C not given here; listed as Homo sapiens): 0.8038

With those in mind, consider the next substance.
Return reported ncRNA array expression, patient 28; argument: SEQ ID NO 29 (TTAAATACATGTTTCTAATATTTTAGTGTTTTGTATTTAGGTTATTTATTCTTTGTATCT; DNA, backbone and methylation of C not given here; listed as Homo sapiens)
2.81

###

tested on: ncRNAs (SEQ ID NO 28-89); test: ncRNA arrays of melanocytes, keratinocytes, normal skin, melanoma cell lines and patient samples; design: species or system human; conditions: melanoma patient 7 sample compared to normal skin
resultType: ncRNA array expression, patient 7
Lab note: write the figure by itself, no unit.

Solved cases below.
SEQ ID NO 78 (ATGGAAAGGCCAGGGGAGGGTGGAGCTCAGGAGTGGAAGCACAGGGACTAAGGCCTGAGC; listed as DNA, chemistry not given here; listed as Homo sapiens): −3.861
SEQ ID NO 74 (TATATTACAGGAGTTGTCTATACGATTATAGTACCTGATTCTTTGGACATATCATTGAAC; listed as DNA, chemistry not given here; listed as Homo sapiens): 2.016
SEQ ID NO 34 (TTTTCTCTGCTTATTACCCTCCCTGTTTCCTCCTGGGCTGCCAACAACATATTATATTAC; listed as DNA, chemistry not given here; listed as Homo sapiens): 3.005

With those in mind, consider the next substance.
Return reported ncRNA array expression, patient 7; argument: SEQ ID NO 42 (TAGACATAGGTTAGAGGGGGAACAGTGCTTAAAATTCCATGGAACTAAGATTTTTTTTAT; listed as DNA, chemistry not given here; listed as Homo sapiens)
−1.996

###

test system: ncRNAs (SEQ ID NO 28-89); experiment: ncRNA arrays of melanocytes, keratinocytes, normal skin, melanoma cell lines and patient samples; design: species or system human; conditions: melanoma patient 25 sample compared to normal skin
Listed here are substances together with their documented ncRNA array expression, patient 25.
Lab note: write the figure by itself, no unit.

Solved cases below.
SEQ ID NO 35 (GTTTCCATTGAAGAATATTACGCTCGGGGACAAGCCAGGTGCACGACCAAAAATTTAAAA; DNA, backbone and methylation of C not given here; listed as Homo sapiens): 1.774
SEQ ID NO 85 (TGAGGGGAGAGGGGATGGGAAACATTAGGGCTGGGTTCATGTAAAGGGACCAGCATTGTG; listed as DNA, chemistry not given here; listed as Homo sapiens): −3.2
SEQ ID NO 88 (CTGTTGCTTATTCTGGGAGCCCAATCCTAGGCTGAGGGAGGTGGGCGCGGGGCTGTTTAA; listed as DNA, chemistry not given here; listed as Homo sapiens): −1.933

Return reported ncRNA array expression, patient 25; argument: SEQ ID NO 86 (AAAATTATTTTATCTTAAGTTTCCATTTAGTTGATTAAAAATAGGGTTATGAATGTTAAA; listed as DNA, chemistry not given here; listed as Homo sapiens)
3.621

Return reported ncRNA array expression, patient 25; argument: SEQ ID NO 64 (TTGCCTAGGAACAAAGAAGGCTTGTGAGGAGATCAAGGAACTTACATGAAATTGTAGGAA; listed as DNA, chemistry not given here; listed as Homo sapiens)
2.502

###

Tested on: ncRNAs (SEQ ID NO 28-89)
Experiment: ncRNA arrays of melanocytes, keratinocytes, normal skin, melanoma cell lines and patient samples
Design: species or system human
Conditions: melanoma patient 20 sample compared to normal skin
Experimental: An ncRNA array platform that contains over 10,000 putative (>200 nt) ncRNAs including most of the known ncRNAs in mouse and human was conducted to evaluate ncRNAs within melanoma. Lack of coding potential was estimated by an algorithm that scores various characteristics of protein-coding genes, including open reading frame length, synonymous/non-synonymous base substitution rates and similarity to known proteins. […]
Listed here are substances together with their documented ncRNA array expression, patient 20.
Lab note: write the figure by itself, no unit.

Solved cases below.
SEQ ID NO 39 (TGATCCTGTAAATCATGTTTTTGTTTATTCCCCAACACTAACCTCACTCCTTTACTATTC; listed as DNA, chemistry not given here; listed as Homo sapiens): −1.263
SEQ ID NO 47 (GTATTTGTAATATTTGATTTGCTTTTAGCAGAGAAAACAATAAAAGAATCCAGGAAAAGT; listed as DNA, chemistry not given here; listed as Homo sapiens): −2.495
SEQ ID NO 67 (TTCCCTATTCCATCCTTTGATGGGTGGCCTGTTACACGTTTGGAAATAAAAACAAGTGGG; listed as DNA, chemistry not given here; listed as Homo sapiens): 1.071
SEQ ID NO 73 (AAAGTTTCCCCATAATGCTCTTGCAAGTGAATATGAGCTGTGGTTTTTGCAGTGGAGTTA; listed as DNA, chemistry not given here; listed as Homo sapiens): 0.6301
SEQ ID NO 33 (TATTGAATGTACACAAGTAATGATGGAGTTTGATTATATGGTTCATTTTCATTTATCCTA; DNA, backbone and methylation of C not given here; listed as Homo sapiens): 1.404
SEQ ID NO 51 (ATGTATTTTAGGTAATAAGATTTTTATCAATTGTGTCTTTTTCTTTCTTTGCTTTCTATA; listed as DNA, chemistry not given here; listed as Homo sapiens): 1.113

Return reported ncRNA array expression, patient 20; argument: SEQ ID NO 34 (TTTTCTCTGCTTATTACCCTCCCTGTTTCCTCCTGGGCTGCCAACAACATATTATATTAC; listed as DNA, chemistry not given here; listed as Homo sapiens)
3.044

Return reported ncRNA array expression, patient 20; argument: SEQ ID NO 86 (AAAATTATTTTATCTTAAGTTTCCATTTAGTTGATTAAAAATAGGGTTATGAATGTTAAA; listed as DNA, chemistry not given here; listed as Homo sapiens)
0.8906

Return reported ncRNA array expression, patient 20; argument: SEQ ID NO 28 (CTTAATGTATCTAAGGTTGGCTTAATCCTGTCTAAAATCAAGGTATTGGACTAGAACAAT; DNA, backbone and methylation of C not given here; listed as Homo sapiens)
1.334

Return reported ncRNA array expression, patient 20; argument: SEQ ID NO 58 (ATTTATTTGACTCTAAAATGACAATATAACAACTATAAGGAATTGATATGATGTCCTTAC; listed as DNA, chemistry not given here; listed as Homo sapiens)
−1.134

Return reported ncRNA array expression, patient 20; argument: SEQ ID NO 52 (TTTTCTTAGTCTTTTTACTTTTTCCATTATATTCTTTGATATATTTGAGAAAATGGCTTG; listed as DNA, chemistry not given here; listed as Homo sapiens)
−0.5729

Return reported ncRNA array expression, patient 20; argument: SEQ ID NO 68 (CAAAAAGAAATCTTGTTTACTTGTAAAAATATAGACTACCTCCTACTTGCCACCGTTAAG; listed as DNA, chemistry not given here; listed as Homo sapiens)
−1.379

Return reported ncRNA array expression, patient 20; argument: SEQ ID NO 31 (TTGCTTTTGTATTTGTAATTTTATGACATTTCGAAGTTTCTGTGTCTTAACTCTTTTTAA; listed as DNA, chemistry not given here; listed as Homo sapiens)
2.853

Return reported ncRNA array expression, patient 20; argument: SEQ ID NO 56 (AAAAAATGAGGCAATCTCATCCCGAAACTATTTAAAACTACTCTCCTCTCTCTTGATAAA; listed as DNA, chemistry not given here; listed as Homo sapiens)
−1.698

Return reported ncRNA array expression, patient 20; argument: SEQ ID NO 83 (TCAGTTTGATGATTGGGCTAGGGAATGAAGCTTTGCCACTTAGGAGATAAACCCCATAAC; listed as DNA, chemistry not given here; listed as Homo sapiens)
−1.228

Recorded values, source patent US20110143948A1.
